B1: Pistol ribozyme (parent)
chain: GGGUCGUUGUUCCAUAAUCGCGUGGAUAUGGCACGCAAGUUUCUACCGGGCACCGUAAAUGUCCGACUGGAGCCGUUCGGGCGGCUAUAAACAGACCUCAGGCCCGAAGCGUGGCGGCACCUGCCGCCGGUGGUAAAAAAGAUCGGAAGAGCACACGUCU

variants of: B1; assay: aptazyme ON/OFF ratio, guanine; higher = stronger switching; co-transcriptional cleavage with and without guanine
quantityName: aptazyme ON/OFF ratio

[
  {
    "var": "U7C U8A G9A U11C C12A C13U",
    "aptazyme ON/OFF ratio": 1.28
  },
  {
    "var": "U7G U8G G9A U10G U11G C12U",
    "aptazyme ON/OFF ratio": 1.43
  },
  {
    "var": "U7G U8C U10C",
    "aptazyme ON/OFF ratio": 2.63
  },
  {
    "var": "U7G U8C G9U U10C C12A C13U",
    "aptazyme ON/OFF ratio": 1.58
  },
  {
    "var": "U7C U8G G9C U10C U11C C12G C13U",
    "aptazyme ON/OFF ratio": 1.07
  }
]

Challenge: Can you look up the measured aptazyme ON/OFF ratio of U7G U8A G9A U11C C12G C13G for me?
Response given: 1.04

Challenge: Can you look up the measured aptazyme ON/OFF ratio of U7G U8G G9C U10G C12A C13U for me?
Response given: 1.14

Challenge: Can you look up the measured aptazyme ON/OFF ratio of U7C U8G G9U U10G U11A C12A for me?
Response given: 1.25

Challenge: Can you look up the measured aptazyme ON/OFF ratio of U7G U8G G9A U10G U11A C12A C13U for me?
Response given: 1.18
